biological target: cAMP-dependent protein kinase catalytic subunit alpha (Homo sapiens); test: Inhibition of PKAcalpha (unknown origin) up to 200 uM using CREB KRREILSRRPSYR-biotinylated peptide as substrate incubated for 45 mins in presence of ATP by ELISA
Calls of active or inactive are those of the source. No cut-off for these calls is given here.
Quantity: inhibition

Here is how some compounds turned out for inhibition.
C/N=c1\nc(N(C)CCc2cn(C)c[n+]2C)c2c(ncn2C)n1C = inactive
Cn1cc(CCNc2n/c(=N\C=[N+](C)C)n(C)c3ncn(C)c23)[n+](C)c1 = inactive
C/N=c1\nc(NCCc2cn(C)c[n+]2C)c2c(ncn2C)n1C = inactive
CN(C)c1nc(NCCc2cn(C)c[n+]2C)c2c(n1)[n+](C)cn2C = inactive

Exercise: Consider the compound Cn1cc(CCNc2nc(=N)n(C)c3ncn(C)c23)[n+](C)c1 . State its measured inhibition.
Key: inactive
